B1: LINE1-full (parent)
chain: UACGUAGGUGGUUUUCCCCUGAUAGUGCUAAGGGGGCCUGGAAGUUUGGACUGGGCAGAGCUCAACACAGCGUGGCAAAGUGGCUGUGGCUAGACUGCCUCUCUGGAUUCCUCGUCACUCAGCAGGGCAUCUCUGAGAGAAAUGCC

variants of: B1; experiment: self-cleavage, relative activity (ratio to wild type); higher = more cleavage; in vitro, sequencing; the parent is a self-cleaving ribozyme
test-readout: self-cleavage
Answers are plain numbers.

For orientation, consider the following solved cases.
{"mutation-name": "U108A A117G", "test-readout": "self-cleavage", "quantitative-readout": 1.97}
{"mutation-name": "C123G A124G", "test-readout": "self-cleavage", "quantitative-readout": 0.74}
{"mutation-name": "A78G A117C", "test-readout": "self-cleavage", "quantitative-readout": 1.69}
{"mutation-name": "U81G U134A", "test-readout": "self-cleavage", "quantitative-readout": 1}
{"mutation-name": "G8C A129G", "test-readout": "self-cleavage", "quantitative-readout": 1.31}

# batch size: 4; output self-cleavage per entry
1. U9G A124C
2. G32A C128A
3. G4A U87A
4. A78U U91C

-- reply
1: 0; 2: 0.61; 3: 0.12; 4: 1.13

# batch size: 6; output self-cleavage per entry
1. A30G C63A
2. C16U A79G
3. A30G A141G
4. U73C C131A
5. A117G G127A
6. U23A U100A

-- reply
1. 0.3
2. 0.9
3. 1.26
4. 1.55
5. 2
6. 0.86

# batch size: 5; output self-cleavage per entry
1. U81C U104A
2. U9A A141G
3. U73A A121U
4. U26C C38A
5. U81A G89A

-- reply
1: 1.07; 2: 1.36; 3: 1.28; 4: 1.28; 5: 0
